System: P388 leukemia ip, CD2F1 mice, survival T/C
assay-name: NCI In Vivo Anticancer Drug Screen. Data for tumor model P388 Leukemia (intraperitoneal) in CD2F1 (CDF1) mice
settings: endpoint: median survival time; dose: 12.5 mg/kg/injection; schedule: Q01DX005 (ip); vehicle: Klucel (hydroxypropylcellulose) (HPC); higher = longer survival
Toxic doses and inconclusive results are not listed.
observation-type: T/C

Lab book: T/C of CCN=C(NCC)c1ccc(NC(=O)Nc2ccc(NC(=O)Nc3ccc(C(=NCC)NCC)cc3)cc2)cc1 noted as 116 % of control

Lab book: T/C of CC(=O)OC1C2C(OC3OC(=O)/C(=C\C=C4\CCCC(C)(C)C4)C32)O[C@H]1OC(C)=O (some centres not stated) noted as 113 % of control

Lab book: T/C of [CH3][Sn]1([CH3])[O]C(=O)CC(CC(=O)O)C(=O)[O]1 (configuration not stated) noted as 119 % of control

Lab book: T/C of C[c-]1[c-][c-][c-][c-]1.[C-]#[O+].[C-]#[O+].[C-]#[O+].[Mn] noted as 94 % of control

Lab book: T/C of O=C1NCCc2ccc(cc2)OC2CCNC2C(=O)N2CCCC12 (configuration not stated) noted as 96 % of control

Lab book: T/C of COC(=O)/C=C1\C=CC(=O)OC1O (configuration not stated) noted as 103 % of control

Lab book: T/C of CC(C)N(C(C)C)P1(=NC(C)(C)C)N(C(C)(C)C)P(=NC(C)(C)C)(N(C(C)C)C(C)C)N1C(C)(C)C (configuration not stated) noted as 107 % of control

---

Test system: P388 leukemia ip, CD2F1 mice, survival T/C
assay-name: NCI In Vivo Anticancer Drug Screen. Data for tumor model P388 Leukemia (intraperitoneal) in CD2F1 (CDF1) mice
settings: endpoint: median survival time; dose: 100.0 mg/kg/injection; schedule: Q01DX005 (ip); vehicle: saline with Tween-80; higher = longer survival
Inconclusive results and toxic doses are left out.
Please provide measured T/C for the entries that follow.

Lab book: T/C of COc1cccc(/C=N/NP(=S)(Oc2ccc(C(C)(C)C)cc2)Oc2ccc(C(C)(C)C)cc2)c1OC noted as 95 % of control

Lab book: T/C of O=C(c1ccccc1)C(Cl)C(Cl)c1ccccc1 (configuration not stated) noted as 101 % of control

Lab book: T/C of CCOC(=O)[C@H]1CC[C@@H](C(=O)OCC)N1Sc1ccc([N+](=O)[O-])cc1[N+](=O)[O-] noted as 102 % of control

Lab book: T/C of C/C=C1\C[C@H]2C(=O)Nc3cc(O)c(OC)cc3C(=O)N2C1 noted as 106 % of control

Lab book: T/C of COC(=O)[C@H]1[C@H]2C[C@@H]3c4[nH]c5cc(OC)ccc5c4CCN3C[C@H]2C[C@@H](OC(=O)c2cccc(N)c2)[C@@H]1OC noted as 97 % of control

Lab book: T/C of NC(=O)C1c2ccccc2C=Cc2ccccc21 noted as 90 % of control

Lab book: T/C of CCOC(=O)COc1ccc(Cc2ccc3c(c2)OCO3)cc1C noted as 97 % of control

Lab book: T/C of ClSC(c1ccccc1)(c1ccccc1)c1ccccc1 noted as 118 % of control

Lab book: T/C of Cc1ccc2c(c1)C(=O)c1c(ccc3ccccc13)C2=O noted as 100 % of control

Lab book: T/C of O=C(N/N=C/c1ccco1)c1ccc(OCc2nc3ccccc3[nH]2)cc1 noted as 87 % of control

Lab book: T/C of CC(=O)N/N=C1/C=C2C/C(=N\NC(C)=O)C=C2C1 noted as 95 % of control

Lab book: T/C of CCn1c2ccccc2c2cc(N=Nc3ccc(N)nc3N)ccc21 noted as 94 % of control

Lab book: T/C of C/C(=C1/N=C(c2ccccc2)OC1=O)c1ccccc1 noted as 96 % of control

Lab book: T/C of CC(C)=CC(C(=O)C1CC1)C(CC(=O)C1CC1)C(C)C (configuration not stated) noted as 92 % of control

Lab book: T/C of O=C(Nc1ccc(Cl)c(Cl)c1)NN1CCCCCC1 noted as 103 % of control

Lab book: T/C of O=C(c1ccco1)N1CCN(C(=O)c2ccco2)CC1 noted as 96 % of control

Lab book: T/C of COc1ccc(C2CC(C)(N3CCCC3)Oc3cc4c(cc32)OCO4)c(OC)c1 (configuration not stated) noted as 96 % of control

Lab book: T/C of O=C(CCn1[nH]c(=O)c(Cl)c(Cl)c1=O)NNc1ccc([N+](=O)[O-])cc1[N+](=O)[O-] noted as 103 % of control

Lab book: T/C of NNC(=O)c1c(O)ccc2ccccc12 noted as 93 % of control

Lab book: T/C of O=C(OCC(OC(=O)c1ccccc1)C(OC(=O)c1ccccc1)C(OC(=O)c1ccccc1)c1nn[nH]n1)c1ccccc1 (configuration not stated) noted as 100 % of control

Lab book: T/C of Cc1nn(-c2ccccn2)c2ncnc(N)c12 noted as 101 % of control

Lab book: T/C of CCOC(=O)C(=O)C(C(=O)c1ccccn1)c1nc2n(c1O)C(=N)N=N2 (configuration not stated) noted as 94 % of control

// data source = PubChem BioAssay AID330
